# test_system: U-CTD (hnRNP U RBD) (human, UniProt Q00839 673-825)
# Sequence (Q00839 673-825): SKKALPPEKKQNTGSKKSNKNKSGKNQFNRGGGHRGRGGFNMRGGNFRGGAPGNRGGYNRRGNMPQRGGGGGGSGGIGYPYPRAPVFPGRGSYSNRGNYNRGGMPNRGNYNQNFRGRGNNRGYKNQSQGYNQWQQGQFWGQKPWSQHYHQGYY
# protocol_summary: fluorescence anisotropy
measure_name: apparent K (half saturation) (nM)
Numeric answer only, unit nM assumed.

>>> numeric_value("MTRNR2L6 sense 250 nt (ssRNA) RNA: GUGCUAAGACUAAACAAGUUUAAGCGAAUUACUAUACAUAUAUUGACCCAAUAAUUUGAUCAACGGAACAAGUUACCCUAGGGAUAACAGCGCAAUCCUAUUCUAGAGUCCAUAUUGACAAUAGGGUUUACGACCUCGAUGUUGGAUCAGGACAUCCUAAUGGUGUAGCUGCUAUCAAGGGUUCAUUUGUUCAAUGAUUAAAGUCCUACGUGGUCUGAGUUCAGACCGGAGCAAGCCAGGUCUGGUACAU")
100

Prompt line: Data request, read-out apparent K (half saturation), for MTRNR2L6 sense 150 nt (ssRNA) RNA: GUGCUAAGACUAAACAAGUUUAAGCGAAUUACUAUACAUAUAUUGACCCAAUAAUUUGAUCAACGGAACAAGUUACCCUAGGGAUAACAGCGCAAUCCUAUUCUAGAGUCCAUAUUGACAAUAGGGUUUACGACCUCGAUGUUGGAUCAG
Response line: 130

Prompt line: Looking for the measured apparent K (half saturation) of MTRNR2L6 sense 200 nt (ssRNA) RNA: GUGCUAAGACUAAACAAGUUUAAGCGAAUUACUAUACAUAUAUUGACCCAAUAAUUUGAUCAACGGAACAAGUUACCCUAGGGAUAACAGCGCAAUCCUAUUCUAGAGUCCAUAUUGACAAUAGGGUUUACGACCUCGAUGUUGGAUCAGGACAUCCUAAUGGUGUAGCUGCUAUCAAGGGUUCAUUUGUUCAAUGAUUA , can you help?
Response line: 210

Prompt line: apparent K (half saturation) for MTRNR2L6 antisense 250 nt (ssRNA) RNA: GUGUACCAGACCUGGCUUGCUCCGGUCUGAACUCAGACCACGUAGGACUUUAAUCAUUGAACAAAUGAACCCUUGAUAGCAGCUACACCAUUAGGAUGUCCUGAUCCAACAUCGAGGUCGUAAACCCUAUUGUCAAUAUGGACUCUAGAAUAGGAUUGCGCUGUUAUCCCUAGGGUAACUUGUUCCGUUGAUCAAAUUAUUGGGUCAAUAUAUGUAUAGUAAUUCGCUUAAACUUGUUUAGUCUUAGCAC ?
Response line: 110

Prompt line: Find the recorded apparent K (half saturation) belonging to MTRNR2L6 antisense 100 nt (ssRNA) RNA: GAGGAUUGCGCUGUUAUCCCUAGGGUAACUUGUUCCGUUGAUCAAAUUAUUGGGUCAAUAUAUGUAUAGUAAUUCGCUUAAACUUGUUUAGUCUUAGCAC and report it.
Response line: 280
